Data provenance: patent US12577257B2

- system: MAGL (Homo sapiens)
- Sequence (Q99685 whole entry, species assumed): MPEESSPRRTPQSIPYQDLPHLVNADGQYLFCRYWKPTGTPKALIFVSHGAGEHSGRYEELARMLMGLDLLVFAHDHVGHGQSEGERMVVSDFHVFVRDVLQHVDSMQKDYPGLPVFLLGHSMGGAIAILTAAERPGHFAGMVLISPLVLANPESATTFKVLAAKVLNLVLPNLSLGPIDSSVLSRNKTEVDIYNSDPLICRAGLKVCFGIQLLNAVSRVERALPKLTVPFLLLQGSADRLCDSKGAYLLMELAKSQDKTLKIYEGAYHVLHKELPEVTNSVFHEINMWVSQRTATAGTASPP
- experiment notes: 2-AG assay: MAGL hydrolysis of 2-arachidonoylglycerol to arachidonic acid, followed by mass spectrometry
- Type: biochemical
- reported conditions: footnote [a]: measured in 2-AG assay
experimental readout: log10 IC50 (log10 of the value in nM)
For clarity, the numbers are log10 values of IC50 expressed in nM.

Sample records with log10 IC50:
O=C1CO[C@H]2CCN(C(=O)N3CC4(CC(Oc5ccc(F)cc5Cl)C4)C3)C[C@H]2N1 [Example 1]; 0.65
O=C1CO[C@H]2CCN(C(=O)N3CC4(CC(COc5ccc(C(F)(F)F)cc5F)C4)C3)C[C@H]2N1 [Example 43]; 0.00
O=C1CO[C@H]2CCN(C(=O)N3CC4(CC(Oc5ccc(F)cc5F)C4)C3)C[C@H]2N1 [Example 8]; 1.03
O=C1CO[C@H]2CCN(C(=O)N3CCC4(CC3)CC(Oc3ccc(C(F)(F)F)cc3F)C4)C[C@H]2N1 [Example 10]; -0.10

Under MAGL (Homo sapiens): report log10 IC50 of O=C1CO[C@H]2CCN(C(=O)N3CC4(CC(Oc5ccc(C(F)(F)F)cc5)C4)C3)C[C@H]2N1 [Example 2] . 0.70
